Test: in vivo
Design: species or system Male Sprague-Dawley rats
Details: male, Sprague-Dawley, rat, iv, 1 mg/kg, MRT(0-inf)
Value type: MRT inf (min)
Report the figure in min without appending any unit label.

What measured MRT inf goes with Cc1nc2ccc3ccc(CNc4ccc5c(c4)CN(C(CCC(=O)O)C(=O)O)C5=O)cc3c2c(=O)[nH]1 (stereo not shown) ? 10.8

###

Test: Example 2: single dose plasma pharmacokinetics of free GW1843 and four liposomal formulations, 1 mg/kg iv bolus
Type: in vivo, Sprague Dawley rats
Details: Sprague Dawley, rat, plasma, iv, 1 mg/kg, 1.000 h; single 1 mg/kg iv bolus; individual rats
Value type: concentration at 1 h (ng/mL)
Report the figure in ng/mL without appending any unit label.

What measured concentration at 1 h goes with Cc1nc2ccc3ccc(CNc4ccc5c(c4)CN(C(CCC(=O)O)C(=O)O)C5=O)cc3c2c(=O)[nH]1 (stereo not shown) ? 60

###

Test: Example 2: single dose plasma pharmacokinetics of free GW1843 and four liposomal formulations, 1 mg/kg iv bolus
Format: in vivo, Sprague Dawley rats
Settings: Sprague Dawley, rat, plasma, iv, 1 mg/kg, 0.250 h; single 1 mg/kg iv bolus; individual rats
Procedure: The plasma pharmacokinetics of free GW1843 and 4 different liposome formulations (see Table 1A; GC-1007-27, GC-1020-36, NA-1022-63A, and NA-1022-59A) of GW1843 in rats following a single intravenous bolus administration are compared. The liposome formulations differed by the pH utilized to load the liposome. […] Plasma samples were prepared and analyzed for GW1843 by the use of a non-validated HPLC assay. […] Pharmacokinetic parameters were determined by non-compartmental analysis (WinNonlin version 1.5). […]
Value type: concentration at 0.25 h (ng/mL)
Report the figure in ng/mL without appending any unit label.

What measured concentration at 0.25 h goes with Cc1nc2ccc3ccc(CNc4ccc5c(c4)CN(C(CCC(=O)O)C(=O)O)C5=O)cc3c2c(=O)[nH]1 (stereo not shown) ? 180

###

Assay: Example 2: single dose plasma pharmacokinetics of free GW1843 and four liposomal formulations, 1 mg/kg iv bolus
Assay type: in vivo, Sprague Dawley rats
Conditions: Sprague Dawley, rat, plasma, iv, 1 mg/kg, single 1 mg/kg iv bolus, rats ~250 g; noncompartmental, group average; read-out: t½ (elimination half-life) (converted)
Value type: half-life

What measured half-life goes with Cc1nc2ccc3ccc(CNc4ccc5c(c4)CN(C(CCC(=O)O)C(=O)O)C5=O)cc3c2c(=O)[nH]1 (stereo not shown) ? ~30 min

###

Assay: in vivo
Set-up: species or system Male Sprague-Dawley rats
Conditions: male, Sprague-Dawley, rat, iv, 1 mg/kg, Concentration of GW1843 in Plasma
Value type: concentration at 0.5 hr (ng/mL)
Report the figure in ng/mL without appending any unit label.

What measured concentration at 0.5 hr goes with Cc1nc2ccc3ccc(CNc4ccc5c(c4)CN(C(CCC(=O)O)C(=O)O)C5=O)cc3c2c(=O)[nH]1 (stereo not shown) ? 117

###

Assay: in vivo
Parameters: species or system Male Sprague-Dawley rats
Conditions: male, Sprague-Dawley, rat, iv, 1 mg/kg, CL
Value type: clearance (mL/min/kg)
Report the figure in mL/min/kg without appending any unit label.

What measured clearance goes with Cc1nc2ccc3ccc(CNc4ccc5c(c4)CN(C(CCC(=O)O)C(=O)O)C5=O)cc3c2c(=O)[nH]1 (stereo not shown) ? 61

###

Assay: in vivo
Set-up: species or system Male Sprague-Dawley rats
Settings: male, Sprague-Dawley, rat, iv, 1 mg/kg, Vss
Value type: Vd (L/kg)
Report the figure in L/kg without appending any unit label.

What measured Vd goes with Cc1nc2ccc3ccc(CNc4ccc5c(c4)CN(C(CCC(=O)O)C(=O)O)C5=O)cc3c2c(=O)[nH]1 (stereo not shown) [GW1843] ? 0.654

###

Test: Example 2: single dose plasma pharmacokinetics of free GW1843 and four liposomal formulations, 1 mg/kg iv bolus
Format: in vivo, Sprague Dawley rats
Conditions: Sprague Dawley, rat, plasma; single 1 mg/kg iv bolus, rats ~250 g; noncompartmental, group average
Value type: MRT inf
Please give the number followed by its unit.

What measured MRT inf goes with Cc1nc2ccc3ccc(CNc4ccc5c(c4)CN(C(CCC(=O)O)C(=O)O)C5=O)cc3c2c(=O)[nH]1 (stereo not shown) ? 30 min

###

Assay: in vivo
Set-up: species or system Male Sprague-Dawley rats
Settings: male, Sprague-Dawley, rat, iv, 1 mg/kg, T½ (terminal half-life)
Value type: half-life (min)
Report the figure in min without appending any unit label.

What measured half-life goes with Cc1nc2ccc3ccc(CNc4ccc5c(c4)CN(C(CCC(=O)O)C(=O)O)C5=O)cc3c2c(=O)[nH]1 (stereo not shown) ? 8.52

###

Assay: in vivo
Set-up: species or system Male Sprague-Dawley rats
Settings: male, Sprague-Dawley, rat, iv, 1 mg/kg, Concentration of GW1843 in Plasma
Value type: concentration at 0.083 hr (ng/mL)
Report the figure in ng/mL without appending any unit label.

What measured concentration at 0.083 hr goes with Cc1nc2ccc3ccc(CNc4ccc5c(c4)CN(C(CCC(=O)O)C(=O)O)C5=O)cc3c2c(=O)[nH]1 (stereo not shown) ? 991

###

Test: in vivo
Set-up: species or system Male Sprague-Dawley rats
Conditions: male, Sprague-Dawley, rat, iv, 1 mg/kg, plasma clearance
Value type: clearance (mL/min)
Report the figure in mL/min without appending any unit label.

What measured clearance goes with Cc1nc2ccc3ccc(CNc4ccc5c(c4)CN(C(CCC(=O)O)C(=O)O)C5=O)cc3c2c(=O)[nH]1 (stereo not shown) [GW1843] ? 62.3

###

Experiment: Example 2: single dose plasma pharmacokinetics of free GW1843 and four liposomal formulations, 1 mg/kg iv bolus
Type: in vivo, Sprague Dawley rats
Settings: Sprague Dawley, rat, plasma, iv, 1 mg/kg, single 1 mg/kg iv bolus, rats ~250 g; noncompartmental, group average; read-out: Cmax
Value type: Cmax (ng/mL)
Report the figure in ng/mL without appending any unit label.

What measured Cmax goes with Cc1nc2ccc3ccc(CNc4ccc5c(c4)CN(C(CCC(=O)O)C(=O)O)C5=O)cc3c2c(=O)[nH]1 (stereo not shown) ? 1280

###

Experiment: Example 2: single dose plasma pharmacokinetics of free GW1843 and four liposomal formulations, 1 mg/kg iv bolus
Assay type: in vivo, Sprague Dawley rats
Details: Sprague Dawley, rat, plasma, iv, 1 mg/kg, 0.500 h; single 1 mg/kg iv bolus; individual rats
Value type: concentration at 0.5 h (ng/mL)
Report the figure in ng/mL without appending any unit label.

What measured concentration at 0.5 h goes with Cc1nc2ccc3ccc(CNc4ccc5c(c4)CN(C(CCC(=O)O)C(=O)O)C5=O)cc3c2c(=O)[nH]1 (stereo not shown) ? 100

###

Assay: Example 2: single dose plasma pharmacokinetics of free GW1843 and four liposomal formulations, 1 mg/kg iv bolus
Assay type: in vivo, Sprague Dawley rats
Settings: Sprague Dawley, rat, plasma; single 1 mg/kg iv bolus, rats ~250 g; noncompartmental, group average; read-out: Cl (converted)
Value type: clearance (mL/min/kg)
Report the figure in mL/min/kg without appending any unit label.

What measured clearance goes with Cc1nc2ccc3ccc(CNc4ccc5c(c4)CN(C(CCC(=O)O)C(=O)O)C5=O)cc3c2c(=O)[nH]1 (stereo not shown) ? 63.4

###

Experiment: Example 2: single dose plasma pharmacokinetics of free GW1843 and four liposomal formulations, 1 mg/kg iv bolus
Assay type: in vivo, Sprague Dawley rats
Conditions: Sprague Dawley, rat, plasma; single 1 mg/kg iv bolus, rats ~250 g; noncompartmental, group average
Value type: AUC(0-inf)
Please give the number followed by its unit.

What measured AUC(0-inf) goes with Cc1nc2ccc3ccc(CNc4ccc5c(c4)CN(C(CCC(=O)O)C(=O)O)C5=O)cc3c2c(=O)[nH]1 (stereo not shown) ? 263 ng·h/mL

###

Test: in vivo
Parameters: species or system Male Sprague-Dawley rats
Details: male, Sprague-Dawley, rat, iv, 1 mg/kg, Cmax
Value type: Cmax

What measured Cmax goes with Cc1nc2ccc3ccc(CNc4ccc5c(c4)CN(C(CCC(=O)O)C(=O)O)C5=O)cc3c2c(=O)[nH]1 (stereo not shown) [GW1843] ? 1620 to 1990 ng/mL

###

Experiment: Example 2: single dose plasma pharmacokinetics of free GW1843 and four liposomal formulations, 1 mg/kg iv bolus
Type: in vivo, Sprague Dawley rats
Conditions: Sprague Dawley, rat, plasma; single 1 mg/kg iv bolus, rats; text of Example 2; read-out: plasma clearance (converted)
Value type: clearance
Please give the number followed by its unit.

What measured clearance goes with Cc1nc2ccc3ccc(CNc4ccc5c(c4)CN(C(CCC(=O)O)C(=O)O)C5=O)cc3c2c(=O)[nH]1 (stereo not shown) [GW1843] ? 63.4 mL/min

###

Test: Example 2: single dose plasma pharmacokinetics of free GW1843 and four liposomal formulations, 1 mg/kg iv bolus
Format: in vivo, Sprague Dawley rats
Conditions: Sprague Dawley, rat, plasma; single 1 mg/kg iv bolus, rats ~250 g; noncompartmental, group average
Value type: AUC(0-t) (ng·h/mL)
Report the figure in ng·h/mL without appending any unit label.

What measured AUC(0-t) goes with Cc1nc2ccc3ccc(CNc4ccc5c(c4)CN(C(CCC(=O)O)C(=O)O)C5=O)cc3c2c(=O)[nH]1 (stereo not shown) ? 219
